- Test system: Micrococcus luteus ATCC 10240
- protocol: Broth microdilution MIC/MBC
- Format: cell-based
- measurement parameters: ATCC10240
Reported MBC values for a set of molecules
Write the number in µg/mL without appending the unit.

[
  {
    "smiles text": "O=C(N/N=C/c1cc(I)cc(I)c1O)c1ccc(O)cc1O",
    "target of assay": "Micrococcus luteus ATCC 10240",
    "display unit": "µg/mL",
    "meas value": 1.95
  }
]

Kindly consider the entry below.
Request: Can you share its MBC? I mean this molecule: COc1ccc(/C=N/NC(=O)c2ccc(O)cc2O)cc1Cl
Response: 500

---

Let's go through some MIC measurements on Proteus mirabilis ATCC 12453 together.

Solved cases below.
[
  {
    "compound": "COc1ccc(/C=N/NC(=O)c2ccc(O)cc2O)cc1Cl [Compound 9]",
    "parameter measured": "MIC",
    "meas value": "> 1000 µg/mL"
  },
  {
    "compound": "COc1ccc(/C=N/NC(=O)c2ccc(O)cc2O)cc1Br [Compound 10]",
    "parameter measured": "MIC",
    "meas value": "> 1000 µg/mL"
  }
]

Kindly consider the entry below.
Request: Param readout = MIC; param system = Proteus mirabilis ATCC 12453; param query = CCOc1cc(/C=N/NC(=O)c2ccc(O)cc2O)ccc1OC [Compound 14] ; response: value
Response: > 1000 µg/mL

---

Let's go through some MIC measurements on Proteus mirabilis ATCC 12453 together.

[
  {
    "smiles text": "Cc1ccccc1/C=N/NC(=O)c1ccc(O)cc1O",
    "MIC": "> 1000 µg/mL"
  },
  {
    "smiles text": "O=C(N/N=C/c1ccc(O)c(Br)c1)c1ccc(O)cc1O",
    "MIC": "> 1000 µg/mL"
  }
]

Request: Param readout = MIC; param system = Proteus mirabilis ATCC 12453; param query = O=C(N/N=C/c1ccccc1Br)c1ccc(O)cc1O ; response: value
Response: > 1000 µg/mL

---

- System: Candida albicans ATCC 2091
- protocol: Broth microdilution MIC/MFC
- Type: cell-based
- measurement parameters: ATCC2091, read-out: MIC
- Source text: In vitro antimicrobial activity assays - Methodology […]
parameter measured: MIC

Solved cases below.
[
  {
    "smiles text": "COc1ccc(/C=N/NC(=O)c2ccc(O)cc2O)c(Br)c1O",
    "MIC": "> 1000 µg/mL"
  },
  {
    "smiles text": "Cc1ccccc1/C=N/NC(=O)c1ccc(O)cc1O",
    "MIC": "> 1000 µg/mL"
  },
  {
    "smiles text": "O=C(N/N=C/c1ccc(O)c(Br)c1)c1ccc(O)cc1O",
    "MIC": "> 1000 µg/mL"
  },
  {
    "smiles text": "O=C(N/N=C/c1cccc([N+](=O)[O-])c1)c1ccc(O)cc1O",
    "MIC": "> 1000 µg/mL"
  }
]

Kindly consider the entry below.
Request: Can you share its MIC? I mean this compound: COc1ccc(/C=N/NC(=O)c2ccc(O)cc2O)cc1Cl
Response: > 1000 µg/mL

---

Reported MIC values for a set of compounds
- Test system: Enterococcus faecalis ATCC 29212
- protocol: Broth microdilution MIC/MBC
- Assay type: cell-based
- measurement parameters: ATCC29212, read-out: MIC
- Text: In vitro antimicrobial activity assays - Methodology […]

Solved cases below.
[
  {
    "smiles text": "O=C(N/N=C/c1ccccc1Br)c1ccc(O)cc1O",
    "meas value": "> 1000 µg/mL"
  },
  {
    "smiles text": "O=C(N/N=C/c1ccccc1Cl)c1ccc(O)cc1O",
    "meas value": "> 1000 µg/mL"
  }
]

Kindly consider the entry below.
Request: Can you share its MIC? I mean this compound: CCOc1cc(/C=N/NC(=O)c2ccc(O)cc2O)ccc1OC
Response: > 1000 µg/mL

---

- Test system: Enterococcus faecalis ATCC 29212
- protocol: Broth microdilution MIC/MBC
- Type: cell-based
- measurement parameters: ATCC29212, read-out: MBC
parameter measured: MBC

[
  {
    "compound": "O=C(N/N=C/c1ccccc1F)c1ccc(O)cc1O [Compound 24]",
    "meas value": "> 1000 µg/mL"
  },
  {
    "compound": "O=C(N/N=C/c1ccc(O)c(Br)c1)c1ccc(O)cc1O [Compound 11]",
    "meas value": "> 1000 µg/mL"
  }
]

Request: Param readout = MBC; param system = Enterococcus faecalis ATCC 29212; param query = O=C(N/N=C/c1ccc([N+](=O)[O-])cc1)c1ccc(O)cc1O [Compound 21] ; response: value
Response: > 1000 µg/mL

Request: Param readout = MBC; param system = Enterococcus faecalis ATCC 29212; param query = COc1ccc(/C=N/NC(=O)c2ccc(O)cc2O)cc1Br [Compound 10] ; response: value
Response: 1000 µg/mL

Request: Param readout = MBC; param system = Enterococcus faecalis ATCC 29212; param query = COc1ccc(/C=N/NC(=O)c2ccc(O)cc2O)cc1Cl [Compound 9] ; response: value
Response: 500 µg/mL

Request: Param readout = MBC; param system = Enterococcus faecalis ATCC 29212; param query = Cc1ccccc1/C=N/NC(=O)c1ccc(O)cc1O [Compound 1] ; response: value
Response: > 1000 µg/mL

Request: Param readout = MBC; param system = Enterococcus faecalis ATCC 29212; param query = O=C(N/N=C/c1cc(Br)c(O)c(Br)c1)c1ccc(O)cc1O [Compound 17] ; response: value
Response: > 1000 µg/mL

---

- Tested on: Staphylococcus aureus ATCC 43300
- protocol: Broth microdilution MIC/MBC
- Format: cell-based
- measurement parameters: Staphylococcus aureus ATCC 43300 (MRSA)
parameter measured: MBC/MIC

Solved cases below.
[
  {
    "compound": "O=C(N/N=C/c1ccc([N+](=O)[O-])cc1)c1ccc(O)cc1O [Compound 21]",
    "target of assay": "Staphylococcus aureus ATCC 43300",
    "meas value": "> 2"
  },
  {
    "compound": "O=C(N/N=C/c1cc(Br)c(O)c(Br)c1)c1ccc(O)cc1O [Compound 17]",
    "target of assay": "Staphylococcus aureus ATCC 43300",
    "meas value": "> 16"
  },
  {
    "compound": "CCCc1ccc(/C=N/NC(=O)c2ccc(O)cc2O)cc1 [Compound 13]",
    "target of assay": "Staphylococcus aureus ATCC 43300",
    "meas value": "> 1"
  },
  {
    "compound": "Cc1ccccc1/C=N/NC(=O)c1ccc(O)cc1O [Compound 1]",
    "target of assay": "Staphylococcus aureus ATCC 43300",
    "meas value": "> 1"
  },
  {
    "compound": "O=C(N/N=C/c1ccccc1[N+](=O)[O-])c1ccc(O)cc1O [Compound 19]",
    "target of assay": "Staphylococcus aureus ATCC 43300",
    "meas value": "> 2"
  }
]

Kindly consider the entry below.
Request: Can you share its MBC/MIC? I mean this compound: CCCOc1ccc(/C=N/NC(=O)c2ccc(O)cc2O)cc1 [Compound 6]
Response: > 1
